testSummary: Inhibition of EphB2
Consider the following compounds; for each one, report its EC50.
Answers are plain numbers, in nM.

smilesRepr | unitTag | EC50
Cc1cn(-c2cc(NC(=O)c3ccc(C)c(NC(=O)c4ccno4)c3)cc(C(F)(F)F)c2)cn1 | nM | 40

Next compound, please.
EC50 lookup needed for Cc1ccc(C(=O)Nc2cccc(C(F)(F)F)c2)cc1Nc1cncc(C(N)=O)c1 , thanks.
40

Sourced from BindingDB's records for doi:10.1016/j.bmcl.2009.05.029
